assay: Effect on Wnt signaling pathway in human SW480 cells harbouring TCF/LEF luciferase reporter gene and SP5-Luc reporter gene incubated for 36 to 48 hrs by luminescence assay; format: cell-based
test-readout: EC50 (nM)

Guide cases for EC50, answers given:
CS(=O)(=O)NCc1cc(F)cc(-c2nccc3[nH]c(-c4n[nH]c5ncc(-c6cncc(OCc7ccccc7)c6)cc45)cc23)c1; 3990
CC(C)N1CCC(c2nc(C(=O)Nc3cc4cc(-c5cnn(C)c5)ccc4cn3)co2)CC1; 80
CCCC(=O)Nc1cncc(-c2cnc3[nH]nc(-c4nc5c(-c6ccoc6)cccc5[nH]4)c3c2)c1; 63
O=C(Nc1ccnnc1)c1n[nH]c2ccc(-c3cccnc3)cc12; 106
Cc1n[nH]c2ccc(-c3cncc(OC[C@@H]4Cc5ccccc5CN4)n3)cc12; 2810
FC1(F)CCN(Cc2cncc(-c3ccc4[nH]nc(-c5cc6c(N7CCCCC7)cccc6[nH]5)c4c3)c2)C1; 750
CC(C)N1CCC(n2cc(C(=O)Nc3cc4cc(-c5cn(C)nn5)ccc4cn3)cn2)CC1; 32.7
c1csc(-c2ccnc3[nH]c(-c4n[nH]c5ccc(-c6cncc(OC7CCNCC7)c6)nc45)cc23)c1; 3550
Fc1ccc(-c2cncc3[nH]c(-c4n[nH]c5ncc(-c6cncnc6)cc45)cc23)cc1; 594
Cn1ncc(-c2ccc3cnc(NC(=O)C4CCN(C(=O)c5ccccc5)CC4)cc3c2)c1CN1CCCCC1; 706

1. Cc1n[nH]c2ccc(-c3cncc(OCCN)c3)cc12
2. Cc1n[nH]c2ccc(-c3cncc(N4CC(C)(N)C4)n3)cc12
3. c1cncc(-c2cc3c(-c4cc5cnccc5[nH]4)n[nH]c3cn2)c1
Q: Hey, quick one: sort these by EC50, largest value first please. Record the ranking as a list of labels in the requested order.
Ans: 2, 1, 3
(2: 3510 nM, 1: 1640 nM, 3: 133 nM)

I. CN1CCN(c2cc(Nc3ncc4c(-c5ccc6ncccc6c5)c[nH]c4n3)ccn2)CC1
II. O=C(Cc1ccccc1)Nc1cncc(-c2ccc3[nH]nc(-c4nc5c(-c6cccc(F)c6)cncc5[nH]4)c3c2)c1
III. O=C(Nc1ccc(N2CCC(O)CC2)nc1)c1n[nH]c2ccc(-c3cncc(CN4CCCCC4)c3)cc12
Q: Sort by EC50, descending. Use the labels to give the requested order.
Ans: I, III, II
(I: 284 nM, III: 49 nM, II: 23 nM)

* * *

target: Dual specificity tyrosine-phosphorylation-regulated kinase 1A (Homo sapiens, UniProt Q13627); assay: Inhibition of recombinant DYRK1A (unknown origin) using Ser/Thr 18 peptide as substrate incubated for 1 hr in presence of ATP by FRET assay
test-readout: EC50 (nM)

Cn1cc(-c2cc3c(C(=O)Nc4ccc(OCCN5CCCC5)cc4)n[nH]c3cc2F)cn1; 1
CC(C)n1cc(C(=O)Nc2cc3cc(-c4cncc(NC5CCN(C)CC5)n4)ncc3cn2)cn1; 1
CCCC(=O)Nc1cncc(-c2cnc3[nH]nc(-c4nc5c(-c6ccoc6)cccc5[nH]4)c3c2)c1; 25

I. CCC(=O)Nc1cncc(-c2cnc3[nH]nc(-c4cc5cnccc5[nH]4)c3c2)c1
II. CN1CCC(Oc2ccc(NC(=O)c3n[nH]c4ccc(-c5ccc(N)nc5)cc34)cc2)CC1
III. CCC(=O)Nc1cncc(-c2ccc3[nH]nc(-c4cc5c(-c6cc(F)cc(CNS(C)(=O)=O)c6)cncc5[nH]4)c3c2)c1
Q: Output the entries ranked by EC50 from maximum down to minimum. Form field (ranking): labels in requested order.
Ans: III, II, I

* * *

target: Dual specificity tyrosine-phosphorylation-regulated kinase 1A (Homo sapiens, UniProt Q13627); assay: Inhibition of recombinant DYRK1A (unknown origin) using Ser/Thr 18 peptide as substrate incubated for 1 hr in presence of ATP by FRET assay
pEC50: −log10 of the molar value.
test-readout: pEC50

Nc1cncc(-c2ccc3[nH]nc(-c4nc5c(-c6ccccc6F)cncc5[nH]4)c3n2)c1; 8.15
CCNCc1cncc(-c2cnc3[nH]nc(-c4nc5c(-c6cccc(F)c6)cccc5[nH]4)c3c2)c1; 7.32
CN1CCN(c2nccc3[nH]c(-c4n[nH]c5cc(F)c(-c6cnn(C)c6)cc45)nc23)CC1; 8.40

1. CC(C)CC(=O)Nc1cncc(-c2ccc3[nH]nc(-c4nc5c(N6CCN(C)CC6)cccc5[nH]4)c3c2)c1
2. O=C(Nc1cncc(-c2ccc3[nH]nc(-c4cc5c(-c6cccnc6)cncc5[nH]4)c3c2)c1)C1CCCC1
3. CC(C)Nc1cncc(-c2ccc3[nH]nc(-c4nc5c(-c6ccoc6)nccc5[nH]4)c3c2)c1
4. CC(C)CC(=O)Nc1cncc(-c2cc3c(-c4cc5c(-c6cc(F)cc(CNS(C)(=O)=O)c6)cncc5[nH]4)n[nH]c3cn2)c1
5. Cn1cc(-c2cc3c(C(=O)Nc4ccc(CN5CCCC5)cc4)n[nH]c3cc2F)cn1
Q: List these items ordered by pEC50, big to small. Give the labels in the order specified.
Ans: 5, 1, 2, 3, 4
(5: 9.00, 1: 8.30, 2: 7.62, 3: 7.36, 4: 7.00)

* * *

assay: Effect on Wnt signaling pathway in human SW480 cells harbouring TCF/LEF luciferase reporter gene and SP5-Luc reporter gene incubated for 36 to 48 hrs by luminescence assay; format: cell-based
test-readout: EC50 (nM)

c1cncc(-c2ccc3[nH]nc(-c4nc5c(N6CCOCC6)cncc5[nH]4)c3c2)c1; 23
CCCCC(=O)Nc1cncc(-c2ccc3[nH]nc(-c4cc5c(N6CCCCC6)nccc5[nH]4)c3n2)c1; 4050
CC(C)Nc1cncc(-c2cnc3[nH]nc(-c4nc5c(-c6ccoc6)nccc5[nH]4)c3c2)c1; 52.6
O=C(Nc1cncc(-c2ccc3[nH]nc(-c4cc5ccncc5[nH]4)c3n2)c1)C1CCCC1; 2630

1. CN1CCN(c2ccnc3[nH]c(-c4n[nH]c5ccc(-c6cncc(NC(=O)c7ccccc7)c6)nc45)cc23)CC1
2. c1cc2[nH]c(-c3n[nH]c4ccc(-c5cncc(CN6CCCCC6)c5)cc34)cc2cn1
Q: Lab log: flag the item ( 1 or 2 ) with the smaller EC50 figure. Answer by stating the label of the chosen item.
Ans: 2
(2: 685 nM, 1: 6100 nM)

* * *

target: UniProt:P49761; assay: Inhibition of recombinant CLK3 (unknown origin) using Ser/Thr 18 peptide as substrate incubated for 1 hr in presence of ATP by FRET assay
Sequence (P49761 whole entry): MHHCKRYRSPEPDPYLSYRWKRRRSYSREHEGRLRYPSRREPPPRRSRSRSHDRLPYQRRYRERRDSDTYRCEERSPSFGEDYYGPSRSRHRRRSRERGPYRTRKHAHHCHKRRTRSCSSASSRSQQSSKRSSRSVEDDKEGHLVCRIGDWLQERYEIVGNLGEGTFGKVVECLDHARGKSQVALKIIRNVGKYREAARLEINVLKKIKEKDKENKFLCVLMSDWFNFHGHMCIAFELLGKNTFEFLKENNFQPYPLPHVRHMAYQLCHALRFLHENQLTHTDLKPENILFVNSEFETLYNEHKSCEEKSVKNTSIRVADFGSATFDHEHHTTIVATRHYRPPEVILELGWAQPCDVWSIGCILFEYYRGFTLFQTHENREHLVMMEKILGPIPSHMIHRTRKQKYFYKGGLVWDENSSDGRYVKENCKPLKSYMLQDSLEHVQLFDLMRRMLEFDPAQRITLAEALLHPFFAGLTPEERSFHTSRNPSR
pEC50: −log10 of the molar value.
test-readout: pEC50

1. Cc1n[nH]c2ccc(-c3cncc(N[C@H]4CCNC[C@@H]4F)n3)cc12
2. O=C(N[C@H]1C[C@@H]1c1ccccc1)c1n[nH]c2ccc(-c3cccnc3)cc12
3. Fc1cccc(-c2cncc3[nH]c(-c4n[nH]c5ncc(-c6cccnc6)cc45)nc23)c1
4. Cc1n[nH]c2ccc(-c3cncc(NC4CCNCC4)n3)cc12
Q: Give the descending pEC50 ranking for the 4 molecules listed above. // rank by listing labels in the order requested
Ans: 3, 1, 4, 2
(3: 7.32, 1: 6.37, 4: 5.85, 2: 5.21)

* * *

experiment: Effect on Wnt signaling pathway in human SW480 cells harbouring TCF/LEF luciferase reporter gene and SP5-Luc reporter gene incubated for 36 to 48 hrs by luminescence assay; format: cell-based
test-readout: EC50 (nM)

Cn1cc(-c2cnc3[nH]nc(-c4nc5c(-c6cccc(F)c6)nccc5[nH]4)c3c2)cn1; 11.1
COc1cncc(C(=O)Nc2c[nH]nc2C(=O)Nc2ccc(N3CCNCC3)nc2)c1; 681
c1csc(-c2nccc3[nH]c(-c4n[nH]c5cnc(-c6cncc(CN7CCCCC7)c6)cc45)cc23)c1; 3680
CN1CCC(n2cc(C(=O)Nc3cc4cc(-c5cncc6[nH]ccc56)ccc4cn3)cn2)CC1; 13.3
COc1cccc(-c2ccnc3[nH]c(-c4n[nH]c5ccc(-c6cccnc6)nc45)nc23)c1; 1610
Cc1ccncc1-c1cc2c(-c3nc4c(-c5cc(F)cc(CNS(C)(=O)=O)c5)cncc4[nH]3)n[nH]c2cn1; 96.6
Cc1ccc(-c2cncc3[nH]c(-c4n[nH]c5ccc(-c6cncc(N)c6)nc45)nc23)s1; 40.7
Fc1ccc(-c2nccc3[nH]c(-c4n[nH]c5ccc(-c6cncc(CN7CCCC7)c6)cc45)cc23)cc1; 3620
CC(C)Nc1cncc(-c2ccc3[nH]nc(-c4nc5c(-c6ccoc6)cncc5[nH]4)c3n2)c1; 597
FC1(F)CCN(Cc2cncc(-c3cnc4[nH]nc(-c5cc6c(-c7ccoc7)cccc6[nH]5)c4c3)c2)C1; 1000

P. Cn1cc(-c2cc3c(C(=O)Nc4ccc5c(c4)CNC5)n[nH]c3cc2F)cn1
Q. COc1cncc(C#Cc2c[nH]nc2C(=O)Nc2ccc(OCCN3CCCC3)nc2)c1
R. CC(C)Nc1cncc(-c2ccc3[nH]nc(-c4cc5c(-c6cccnc6)cccc5[nH]4)c3c2)c1
S. Cc1cn(-c2nccc3[nH]c(-c4n[nH]c5ccc(-c6cncc(NC(=O)CC(C)C)c6)nc45)nc23)cn1
Q: Highest EC50 first, then in falling order down to the smallest. Dear reader, please state the labels in the requested order.
Ans: S, Q, P, R
(S: 2900 nM, Q: 1210 nM, P: 793 nM, R: 100 nM)
